- measured.target: T1, human IL-11 (AAH12506.1, Pro22-Leu199) (human, UniProt P20809 22-199)
- T1 construct: The range Pro22-Leu199 counts on AAH12506.1; The Octet runs say only 'human IL-11'; also called hIL-11
- T1 chain: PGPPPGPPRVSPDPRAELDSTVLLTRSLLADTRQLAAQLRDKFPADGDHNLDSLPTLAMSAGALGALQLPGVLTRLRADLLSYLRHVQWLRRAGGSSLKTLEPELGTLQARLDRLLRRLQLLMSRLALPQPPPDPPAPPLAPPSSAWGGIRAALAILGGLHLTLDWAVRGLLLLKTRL
- protocol.summary: BLI (Octet), antibody captured, human IL-11 in solution
property.name: koff (s⁻¹)
Please give a number only; it is taken to be in s⁻¹.

Value of measured koff for the entry hz8C8-VHm1 + hz8C8-VL (antibody, human IgG1, kappa, V domains shown, human IgG1 constant regions) VH: EVQLVESGGGLVQPGGSLRLSCAASGFTFSSFGMHWVRQAPGKGLEWVAYITPGSNTIYYADTVKGRFTISRDNAKNSLYLQMNSLRAEDTAVYYCAREYYSYDEGFAYWGQGTLVTVSS VL: EIVLTQSPATLSLSPGERATLSCSVSSSISSNYLHWYQQKPGQAPRLLIYRTSNLASGIPARFSGSGSGTDFTLTISSLEPEDFAVYYCQQGVDVPFTFGQGTKLEIKR : 0.000472
